Test: physchem
Conditions: octanol/water
Description: GSK_TB: GSK in-house hydrophobicity assay (logP)
propertyName: logP
Hey, just send me the number, nothing else.

Answered examples (5):
Cc1ccc(C(=O)Nc2nc(-c3ccccn3)cs2)s1: 4.61
CCCCc1ccc(C(=O)Nc2nccc3ccccc23)nc1: 6.94
Brc1cncc(-c2cc(NCCCn3ccnc3)nc(-c3ccccc3)n2)c1: 5.83
Cc1ccc2nc(C(F)(F)F)c(C(=O)NCc3ccc4c(c3)OCO4)n2c1: 4.98
O=C(O)C(F)(F)F.c1ccc2c(-c3ccc(CNCC4CCNC4)cc3)cncc2c1 (stereo unspecified): 3.02

Prompt: Look up logP for this compound: COc1ccc(CC(=O)Nc2c(-c3cccs3)nc3cc(C)ccn23)cc1
Completion: 4.02

Prompt: What do we get for Cc1nc2ccccn2c1C(=O)NCc1ccc2c(c1)OCO2 ?
Completion: 3.02

Prompt: What do we get for CCCOC(=O)COc1ccc2c(=O)c(-c3ccccc3OC)coc2c1 ?
Completion: 6.24

Prompt: What do we get for Nc1nc(N)c2c(Sc3ccc4ccccc4c3)cccc2n1 ?
Completion: 4.72

Prompt: What do we get for C=CCNc1nc(SC)nc2ccccc12 ?
Completion: 5.13

Prompt: What do we get for Cc1nc2ccccn2c1C(=O)Nc1ccc(C(C)(C)C)cc1 ?
Completion: 6.03
